B1: KCNG1 (parent)
chain: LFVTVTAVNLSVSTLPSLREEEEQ

Variants of: B1
Test: protein stability index of a GFP-peptide fusion (GPS, HEK-293T) (PSI 1-6); higher = more stable;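 further: lentivirally expressed fusions sorted by FACS into six bins by GFP to DsRed ratio, PSI derived from sequencing read proportions per bin multiplied by bin number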
Conditions: c terminus: a fixed tail appended
Property Label: protein stability index
One number for each entry.

# Mutation Label, Property Label, Numeric Readout
rows = [
    ("L1D", "protein stability index", 4.52),
    ("T6H", "protein stability index", 1.85),
    ("S17P", "protein stability index", 2.55),
    ("E23D", "protein stability index", 1.71),
    ("T4G", "protein stability index", 2.89),
    ("S11M", "protein stability index", 3.64),
    ("R19N", "protein stability index", 1.96),
    ("V12P", "protein stability index", 1.6),
    ("L10I", "protein stability index", 3.17),
    ("L1A", "protein stability index", 1.78),
]

Need protein stability index for each of these variants.
1. L10P
2. V12L
3. V3D

[2.32, 3.1, 4.92]
